assay: Elimination half life in African green monkey blood at 25 mg/kg administered as iv infusion twice daily for 7 consecutive days measured on day 1 by LC-MS/MS analysis; format: ADME, organism-based; conditions: chlorocebus aethiops, read-out: beta t1/2 (converted)
quantity_name: half-life (h)

CN[C@@H]1[C@@H](O)[C@@H](O[C@@H]2[C@@H](O)[C@H](O[C@H]3OC(CNCCO)=CC[C@H]3N)[C@@H](N)C[C@H]2NC(=O)[C@@H](O)CCN)OC[C@]1(C)O 1.8

====

test: AUC (0 to 24 hrs) in African green monkey blood at 35 mg/kg administered as iv infusion twice daily for 7 consecutive days measured on day 7 by LC-MS/MS analysis; type: ADME, organism-based; design: time < 24 hr, dose 35 mg/kg, route intravenous; conditions: chlorocebus aethiops
quantity_name: AUC at 24 h

CN[C@@H]1[C@@H](O)[C@@H](O[C@@H]2[C@@H](O)[C@H](O[C@H]3OC(CNCCO)=CC[C@H]3N)[C@@H](N)C[C@H]2NC(=O)[C@@H](O)CCN)OC[C@]1(C)O 319 µg·h/mL

====

assay: Clearance in African green monkey blood at 35 mg/kg administered as iv infusion twice daily for 7 consecutive days measured on day 7 by LC-MS/MS analysis; assay type: ADME, organism-based; conditions: chlorocebus aethiops
quantity_name: clearance (mL/min/kg)

CN[C@@H]1[C@@H](O)[C@@H](O[C@@H]2[C@@H](O)[C@H](O[C@H]3OC(CNCCO)=CC[C@H]3N)[C@@H](N)C[C@H]2NC(=O)[C@@H](O)CCN)OC[C@]1(C)O 1.67

====

assay: Cmax in African green monkey blood at 25 mg/kg administered as iv infusion twice daily for 7 consecutive days measured on day 7 by LC-MS/MS analysis; assay type: ADME, organism-based; parameters: dose 25 mg/kg, route intravenous; conditions: chlorocebus aethiops
quantity_name: Cmax (µg/mL)

CN[C@@H]1[C@@H](O)[C@@H](O[C@@H]2[C@@H](O)[C@H](O[C@H]3OC(CNCCO)=CC[C@H]3N)[C@@H](N)C[C@H]2NC(=O)[C@@H](O)CCN)OC[C@]1(C)O 106

====

assay: Cmax in African green monkey blood at 35 mg/kg administered as iv infusion twice daily for 7 consecutive days measured on day 1 by LC-MS/MS analysis; assay type: ADME, organism-based; design: dose 35 mg/kg, route intravenous; conditions: chlorocebus aethiops
quantity_name: Cmax (µg/mL)

CN[C@@H]1[C@@H](O)[C@@H](O[C@@H]2[C@@H](O)[C@H](O[C@H]3OC(CNCCO)=CC[C@H]3N)[C@@H](N)C[C@H]2NC(=O)[C@@H](O)CCN)OC[C@]1(C)O 176

====

experiment: Clearance in African green monkey blood at 25 mg/kg administered as iv infusion twice daily for 7 consecutive days measured on day 7 by LC-MS/MS analysis; format: ADME, organism-based; conditions: chlorocebus aethiops
quantity_name: clearance

CN[C@@H]1[C@@H](O)[C@@H](O[C@@H]2[C@@H](O)[C@H](O[C@H]3OC(CNCCO)=CC[C@H]3N)[C@@H](N)C[C@H]2NC(=O)[C@@H](O)CCN)OC[C@]1(C)O 0.11 L/h/kg

====

test: Volume of distribution at steady state in African green monkey blood at 35 mg/kg administered as iv infusion twice daily for 7 consecutive days measured on day 1 by LC-MS/MS analysis; assay type: ADME, organism-based; conditions: chlorocebus aethiops, read-out: Vdss
quantity_name: Vd (L/kg)

CN[C@@H]1[C@@H](O)[C@@H](O[C@@H]2[C@@H](O)[C@H](O[C@H]3OC(CNCCO)=CC[C@H]3N)[C@@H](N)C[C@H]2NC(=O)[C@@H](O)CCN)OC[C@]1(C)O 0.26
